System: CYP2B6
assayExplanation: In-vivo CYP inhibition study, pharmacokinetics of probe bupropion and hydroxy bupropion
conditionContext: Sprague-Dawley, rat, plasma, po, 10 mg/kg
parameter: AUC(0-inf) (ng·h/mL)

# molecule, assayedTarget, measuredResult
data = [
    ("CC(NC(C)(C)C)C(=O)c1cccc(Cl)c1 (stereo not shown) [Bupropion, bupropion]", "CYP2B6", 48800),
]

###

Tested on: CYP3A4
assayExplanation: in vivo
conditionContext: Sprague-Dawley, rat, plasma, po, 10 mg/kg
parameter: Tmax (min)

# compound, parameter, measuredResult
rows = [
    ("Cc1ncc2n1-c1ccc(Cl)cc1C(c1ccccc1F)=NC2 [midazolam]", "Tmax", 30),
]

###

Tested on: CYP3A4
assayExplanation: CYP3A4 inhibition, probe substrate cocktail in rat liver microsomes (midazolam 1-hydroxylation)
Assay type: in vitro ADME
conditionContext: pH 7.4, probe midazolam (1-hydroxylation), rat liver microsomes 0.5 mg/mL, garcinol 0.11-30 µM

# testSmiles, unitDescriptor, IC50
measured = [
    ("C=C(C)[C@@H](CC=C(C)C)C[C@@]12C[C@@H](CC=C(C)C)C(C)(C)[C@@](CC=C(C)C)(C(=O)C(C(=O)c3ccc(O)c(O)c3)=C1O)C2=O", "µM", 5.1),
]

###

Tested on: CYP2B6
assayExplanation: In-vivo CYP inhibition study, pharmacokinetics of probe bupropion and hydroxy bupropion
conditionContext: Sprague-Dawley, rat, plasma, po, 10 mg/kg

# compound, Cmax
measured = [
    ("CC(NC(C)(C)C)C(=O)c1cccc(Cl)c1 (stereo not shown) [Bupropion, bupropion]", "8100 ng/mL"),
]

###

System: CYP2C9
assayExplanation: CYP2C9 inhibition, probe substrate cocktail in rat liver microsomes (diclofenac 4-hydroxylation)
Format: in vitro ADME
conditionContext: pH 7.4, probe diclofenac (4-hydroxylation), rat liver microsomes 0.5 mg/mL, garcinol 0.11-30 µM
parameter: IC50 (µM)

# testSmiles, measuredResult
data = [
    ("C=C(C)[C@@H](CC=C(C)C)C[C@@]12C[C@@H](CC=C(C)C)C(C)(C)[C@@](CC=C(C)C)(C(=O)C(C(=O)c3ccc(O)c(O)c3)=C1O)C2=O", 8),
]

###

Test system: CYP3A4
assayExplanation: in vivo
conditionContext: Sprague-Dawley, rat, plasma, po, 10 mg/kg

# testSmiles, assayedTarget, AUC(0-inf), µg·h/mL
data = [
    ("Cc1ncc2n1-c1ccc(Cl)cc1C(c1ccccc1F)=NC2", "CYP3A4", 1.14),
]

###

assayedTarget: CYP1A2 (Rattus norvegicus)
Sequence (P04799 1-513): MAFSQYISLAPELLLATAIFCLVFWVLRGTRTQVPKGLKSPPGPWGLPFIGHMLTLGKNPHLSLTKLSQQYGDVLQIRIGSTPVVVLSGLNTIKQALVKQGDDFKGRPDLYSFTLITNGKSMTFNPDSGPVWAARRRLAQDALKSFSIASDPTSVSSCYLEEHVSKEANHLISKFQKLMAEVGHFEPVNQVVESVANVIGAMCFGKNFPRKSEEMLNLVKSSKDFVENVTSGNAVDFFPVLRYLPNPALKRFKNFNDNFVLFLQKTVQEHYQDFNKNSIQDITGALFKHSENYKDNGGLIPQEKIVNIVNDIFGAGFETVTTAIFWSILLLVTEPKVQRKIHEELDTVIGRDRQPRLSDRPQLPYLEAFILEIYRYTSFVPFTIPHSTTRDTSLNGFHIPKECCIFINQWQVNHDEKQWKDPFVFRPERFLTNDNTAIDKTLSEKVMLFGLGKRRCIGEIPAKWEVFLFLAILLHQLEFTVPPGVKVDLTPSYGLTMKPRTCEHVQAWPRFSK

# compound, IC50 (µM)
rows = [
    ("C=C(C)[C@@H](CC=C(C)C)C[C@@]12C[C@@H](CC=C(C)C)C(C)(C)[C@@](CC=C(C)C)(C(=O)C(C(=O)c3ccc(O)c(O)c3)=C1O)C2=O [Garcinol]", 7.6),
]
